Test system: Streptococcus pyogenes SSI-9
Assay: Antibacterial activity assay of bead-derived peptides (three concentrations)
Format: cell-based
Design: key: +++: inhibition by the 640-fold diluted peptide solution; ++: inhibition by the 160-fold diluted solution; +: inhibition by the 40-fold diluted solution; -: no inhibition
Conditions: S. pyogenes, bead-derived peptide solution, three concentrations
Where a SMILES comes first, the peptide text is derived from it. [ ]: non-standard residue; d: D form. The star is where a group is joined. NHCH2CH2OH = OCCN*; For = O=C*

# compound, systemName, antibacterial activity
rows = [
    ("CC(C)C[C@@H](NC(=O)[C@H](C)NC(=O)CNC(=O)[C@@H](NC=O)C(C)C)C(=O)N[C@@H](C)C(=O)N[C@H](CC(C)C)C(=O)N[C@H](C(=O)N[C@H](CC(C)C)C(=O)N[C@@H](Cc1c[nH]c2ccccc12)C(=O)N[C@H](CC(C)C)C(=O)N[C@@H](Cc1c[nH]c2ccccc12)C(=O)N[C@H](CC(C)C)C(=O)N[C@@H](Cc1c[nH]c2ccccc12)C(=O)N[C@@H](C(=O)N[C@@H](Cc1c[nH]c2ccccc12)C(=O)NCCO)[C@H](C)O)C(C)C [compound 5006] (For-VGA[dL]A[dL]V[dL]W[dL]W[dL]W[dT]W-NHCH2CH2OH)", "Streptococcus pyogenes SSI-9", "-"),
    ("CNC(=O)C[C@@H](NC(=O)[C@H](Cc1c[nH]c2ccccc12)NC(=O)[C@H](NC(=O)[C@H](Cc1c[nH]c2ccccc12)NC(=O)[C@H](NC(=O)[C@H](Cc1c[nH]c2ccccc12)NC(=O)[C@@H](CC(C)C)NC(=O)[C@@H](NC(=O)[C@H](NC(=O)[C@H](C)NC(=O)[C@H](NC(=O)[C@H](C)NC(=O)CNC(=O)[C@@H](NC=O)C(C)C)C(C)C)C(C)C)C(C)C)C(C)C)C(C)C)C(=O)N[C@@H](Cc1c[nH]c2ccccc12)C(=O)NCCO [compound 7271] (For-VGA[dV]A[dV]V[dL]W[dV]W[dV]W[dD](NHMe)W-NHCH2CH2OH)", "Streptococcus pyogenes SSI-9", "-"),
    ("CNC(=O)C[C@@H](NC(=O)[C@H](Cc1c[nH]c2ccccc12)NC(=O)[C@@H](CC(C)C)NC(=O)[C@@H](NC(=O)[C@@H](CC(C)C)NC(=O)[C@H](C)NC(=O)[C@H](NC(=O)[C@H](C)NC(=O)CNC(=O)[C@@H](NC=O)C(C)C)C(C)C)C(C)C)C(=O)N[C@@H](Cc1c[nH]c2ccccc12)C(=O)N[C@@H](C(=O)N[C@@H](Cc1c[nH]c2ccccc12)C(=O)N[C@@H](C(=O)N[C@@H](Cc1c[nH]c2ccccc12)C(=O)NCCO)C(C)C)C(C)C [compound 5380] (For-VGA[dV]A[dL]V[dL]W[dD](NHMe)W[dV]W[dV]W-NHCH2CH2OH)", "Streptococcus pyogenes SSI-9", "-"),
    ("CNC(=O)C[C@@H](NC(=O)[C@H](Cc1c[nH]c2ccccc12)NC(=O)[C@H](NC(=O)[C@H](Cc1c[nH]c2ccccc12)NC(=O)[C@@H](CC(C)C)NC(=O)[C@H](Cc1c[nH]c2ccccc12)NC(=O)[C@H](NC(=O)[C@@H](NC(=O)[C@H](NC(=O)[C@H](C)NC(=O)[C@@H](CC(C)C)NC(=O)[C@H](C)NC(=O)CNC(=O)[C@@H](NC=O)C(C)C)C(C)C)C(C)C)C(C)C)C(C)C)C(=O)N[C@@H](Cc1c[nH]c2ccccc12)C(=O)NCCO [compound 7948] (For-VGA[dL]A[dV]V[dV]W[dL]W[dV]W[dD](NHMe)W-NHCH2CH2OH)", "Streptococcus pyogenes SSI-9", "-"),
]
